Entries annotated with measured koff
molecular target: T1, human transferrin receptor (recombinant, for surface plasmon resonance) (human, UniProt P02786 89-760); test: SPR 25C
T1 construct: also called huTfR; human transferrin receptor-biotinylated
T1 sequence (P02786 89-760 limits assumed): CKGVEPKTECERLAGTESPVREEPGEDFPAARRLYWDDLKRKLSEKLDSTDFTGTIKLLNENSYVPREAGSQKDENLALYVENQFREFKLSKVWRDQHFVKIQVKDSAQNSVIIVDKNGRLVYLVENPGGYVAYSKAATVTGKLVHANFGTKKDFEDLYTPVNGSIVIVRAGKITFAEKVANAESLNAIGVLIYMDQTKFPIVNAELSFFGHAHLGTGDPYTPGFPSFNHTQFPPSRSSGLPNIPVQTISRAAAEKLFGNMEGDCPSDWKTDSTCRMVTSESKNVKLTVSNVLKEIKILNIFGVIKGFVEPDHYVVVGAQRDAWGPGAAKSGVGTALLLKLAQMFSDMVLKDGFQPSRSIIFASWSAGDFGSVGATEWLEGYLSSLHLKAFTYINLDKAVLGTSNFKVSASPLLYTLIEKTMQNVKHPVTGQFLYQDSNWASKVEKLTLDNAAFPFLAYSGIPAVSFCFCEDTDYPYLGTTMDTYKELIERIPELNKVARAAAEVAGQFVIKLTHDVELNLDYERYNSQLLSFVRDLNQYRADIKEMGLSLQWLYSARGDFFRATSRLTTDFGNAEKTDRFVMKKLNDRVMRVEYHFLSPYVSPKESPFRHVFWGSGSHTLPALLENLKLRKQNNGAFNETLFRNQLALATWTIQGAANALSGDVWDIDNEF

{"binder": "2/99 VH2/VL14 (antibody, V domains shown) VH: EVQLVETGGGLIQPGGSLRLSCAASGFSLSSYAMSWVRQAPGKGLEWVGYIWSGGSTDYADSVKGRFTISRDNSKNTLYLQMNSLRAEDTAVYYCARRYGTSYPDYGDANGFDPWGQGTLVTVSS VL: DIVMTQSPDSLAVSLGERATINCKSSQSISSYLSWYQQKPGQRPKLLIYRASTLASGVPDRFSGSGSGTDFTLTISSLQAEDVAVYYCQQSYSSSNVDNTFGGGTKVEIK", "koff, s⁻¹": 0.00244}
{"binder": "2/99 VH23-DANG/VL3 (antibody, V domains shown) VH: QSMQESGPGLVKPSQTLSLTCTVSGFSLSSYAMSWIRQHPGKGLEWIGYIWSGGSTDYASWAKSRVTISKTSTTVSLKLSSVTAADTAVYYCARRYGTSYPDYGDANGFDPWGQGTLVTVSS VL: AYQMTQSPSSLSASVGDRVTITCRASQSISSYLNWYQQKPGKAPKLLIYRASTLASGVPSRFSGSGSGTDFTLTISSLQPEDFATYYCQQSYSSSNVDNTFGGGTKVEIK", "koff, s⁻¹": 0.000783}
{"binder": "2/99 VH22/VL3 (antibody, V domains shown) VH: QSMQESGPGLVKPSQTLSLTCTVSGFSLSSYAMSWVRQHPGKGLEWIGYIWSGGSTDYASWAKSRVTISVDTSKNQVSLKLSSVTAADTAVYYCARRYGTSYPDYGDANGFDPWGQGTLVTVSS VL: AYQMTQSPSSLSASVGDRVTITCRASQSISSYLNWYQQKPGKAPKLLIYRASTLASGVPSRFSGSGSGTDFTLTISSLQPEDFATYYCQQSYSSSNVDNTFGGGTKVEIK", "koff, s⁻¹": 0.00143}

The origin of these recorded values is patent US20180291110A1.
